- target_or_system: JAK2 (Homo sapiens, UniProt O60674)
- Construct: host or cells: baculovirus expression system
- Sequence (O60674 whole entry): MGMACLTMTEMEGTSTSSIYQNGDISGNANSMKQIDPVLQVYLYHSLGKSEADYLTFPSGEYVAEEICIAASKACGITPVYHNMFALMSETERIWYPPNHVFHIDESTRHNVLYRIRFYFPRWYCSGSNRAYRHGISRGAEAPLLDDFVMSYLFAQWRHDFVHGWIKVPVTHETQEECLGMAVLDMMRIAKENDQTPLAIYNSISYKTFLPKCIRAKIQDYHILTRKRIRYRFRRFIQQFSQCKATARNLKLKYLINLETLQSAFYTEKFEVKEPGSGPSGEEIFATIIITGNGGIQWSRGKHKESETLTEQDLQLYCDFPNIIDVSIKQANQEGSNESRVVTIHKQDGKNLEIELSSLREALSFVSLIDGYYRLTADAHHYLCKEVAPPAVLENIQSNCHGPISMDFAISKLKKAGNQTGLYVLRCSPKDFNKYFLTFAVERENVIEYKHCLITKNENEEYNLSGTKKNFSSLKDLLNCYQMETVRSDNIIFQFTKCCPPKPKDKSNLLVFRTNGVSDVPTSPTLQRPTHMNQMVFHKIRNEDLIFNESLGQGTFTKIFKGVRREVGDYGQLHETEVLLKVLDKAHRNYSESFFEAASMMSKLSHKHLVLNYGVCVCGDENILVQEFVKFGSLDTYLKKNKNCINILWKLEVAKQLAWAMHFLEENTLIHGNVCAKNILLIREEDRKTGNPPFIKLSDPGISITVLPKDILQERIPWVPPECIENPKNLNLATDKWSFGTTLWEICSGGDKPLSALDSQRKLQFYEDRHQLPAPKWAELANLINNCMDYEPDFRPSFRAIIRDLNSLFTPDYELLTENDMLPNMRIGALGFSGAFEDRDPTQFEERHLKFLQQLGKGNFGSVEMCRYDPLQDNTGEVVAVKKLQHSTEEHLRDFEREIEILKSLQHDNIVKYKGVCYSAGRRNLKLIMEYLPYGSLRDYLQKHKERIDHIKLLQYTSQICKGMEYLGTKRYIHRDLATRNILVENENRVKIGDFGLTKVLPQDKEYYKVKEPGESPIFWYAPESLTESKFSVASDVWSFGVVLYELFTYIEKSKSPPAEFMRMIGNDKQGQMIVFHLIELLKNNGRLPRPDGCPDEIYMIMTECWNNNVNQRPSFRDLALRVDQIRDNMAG
- protocol_notes: Recombinant Human JAK2 Kinase Assay (TRF)
- Format: biochemical
- condition_set: JAK2 Kinase Inhibition; read-out: JAK2 Potency
The compounds listed here are annotated with their IC50.

Known IC50 results, listed for orientation:
{"compound": "CC(C)(C)NS(=O)(=O)c1cccc(-c2ccc3cnc(Nc4cccc(-n5cccn5)c4)nn23)c1 [Example 1386]", "reported_value": "< 100 nM"}
{"compound": "COc1ccccc1-c1ccc2cnc(-c3nnc(C)[nH]3)nn12 [Example 1501]", "reported_value": "> 10000 nM"}
{"compound": "COc1ccc(-c2ccc3cnc(Nc4ccc(C5CCN(CC(N)=O)CC5)cc4)nn23)cn1 [Example 1413]", "reported_value": "< 100 nM"}
{"compound": "COc1ccc(-c2ccc3cnc(Nc4ccc(N5CCC[C@@H](C(=O)N6CCN(C)CC6)C5)cc4OC)nn23)cn1 [Example 464]", "reported_value": "< 100 nM"}
{"compound": "CC(C)(C)NS(=O)(=O)c1cccc(-c2ccc3cnc(Nc4ccc(F)c(N5CCOCC5)c4)nn23)c1 [Example 1394]", "reported_value": "< 100 nM"}
{"compound": "CNC(=O)c1ccc(-c2ccc3cnc(Nc4cccc(N5CCOCC5)c4)nn23)cc1 [Example 194]", "reported_value": "< 100 nM"}
{"compound": "N#Cc1ccc(-c2ccc3cnc(Nc4ccc(N5CCOCC5)cc4)nn23)cn1 [Example 37]", "reported_value": "< 100 nM"}

Now for another entry.
Under JAK2 (Homo sapiens, UniProt O60674): IC50 value of COc1cc(N2CCC(N3CCOCC3)CC2)ccc1Nc1ncc2ccc(-c3ccccc3NC(C)=O)n2n1 [Example 453] ?
1000 to 10000 nM

---

- target_or_system: JAK2 (Homo sapiens)
- Construct: host or cells: baculovirus expression system
- protocol_notes: Recombinant Human JAK2 Kinase Assay (TRF)
- Type: biochemical
- condition_set: JAK2 kinase inhibition, 0.2 μM ATP; read-out: JAK2 Potency
pIC50: −log10 of the molar value.
quantity_kind: pIC50

{"compound": "COc1cccc(-c2ccn3nc(Nc4ccc(N5CCN(C)CC5)cc4)ncc23)c1 [Example 725]", "target_or_system": "JAK2 (Homo sapiens)", "pIC50": "< 5.00"}
{"compound": "COc1cc([C@@H]2CCN(C(=O)OC(C)(C)C)C[C@@H]2O)ccc1Nc1ncc2ccc(-c3ccccc3OC)n2n1 (racemic) [Example 834]", "target_or_system": "JAK2 (Homo sapiens)", "pIC50": "6.00 to 7.00"}
{"compound": "Cn1cc(-c2ccc3cnc(Nc4ccc(N5CCN(CCO)CC5)cc4)nn23)cn1 [Example 1181]", "target_or_system": "JAK2 (Homo sapiens)", "pIC50": "> 7.00"}
{"compound": "CN1CCN(c2cccc(Nc3ncc4ccc(NCc5cccnc5)n4n3)c2)CC1 [Example 1168]", "target_or_system": "JAK2 (Homo sapiens)", "pIC50": "> 7.00"}
{"compound": "CCN1CCOC(c2ccc(Nc3ncc4ccc(-c5cccc(NS(C)(=O)=O)c5)n4n3)cc2)C1 (centres unmarked) [Example 651]", "target_or_system": "JAK2 (Homo sapiens)", "pIC50": "> 7.00"}
{"compound": "COc1cc([C@@]2(O)CCN(C)C[C@@H]2O)ccc1Nc1ncc2ccc(-c3ccccc3OC)n2n1 (racemic) [Example 829]", "target_or_system": "JAK2 (Homo sapiens)", "pIC50": "> 7.00"}

Suppose we examine the compound CCNS(=O)(=O)c1cccc(-c2ccc3cnc(Nc4ccc(C5CCN(CC(N)=O)CC5)cc4)nn23)c1 [Example 929] ; what pIC50 value has been reported?
> 7.00

Suppose we examine the compound COc1cc(N2CCN(C[C@@H](C)O)CC2)ccc1Nc1ncc2ccc(-c3ccccc3OC)n2n1 [Example 754] ; what pIC50 value has been reported?
> 7.00

---

- target_or_system: JAK2 (Homo sapiens)
- Construct: host or cells: baculovirus expression system
- protocol_notes: Recombinant Human JAK2 Kinase Assay (TRF)
- Assay type: biochemical
- condition_set: JAK2 kinase inhibition, 0.2 μM ATP; read-out: JAK2 Potency
quantity_kind: IC50

Known IC50 results, listed for orientation:
{"molecule": "CC(C)(C)NS(=O)(=O)c1cccc(-c2ccc3cnc(Nc4ccc(C5CCNCC5)cc4)nn23)c1", "reported_value": "< 100 nM"}
{"molecule": "COc1ccccc1-c1ccc2cnc(Nc3ccc(C4CN(CC(N)=O)C4)cc3)nn12", "reported_value": "< 100 nM"}
{"molecule": "CN(c1ccccc1-c1ccc2cnc(Nc3ccc(C4CCN(CCO)CC4)cc3)nn12)S(C)(=O)=O", "reported_value": "< 100 nM"}
{"molecule": "CN1CCN(c2ccc(Nc3ncc4ccc(C5=CCC(S(C)(=O)=O)CC5)n4n3)cc2)CC1 (centres unmarked)", "reported_value": "< 100 nM"}
{"molecule": "COc1cc(N2CCN(C[C@H](C)O)CC2)ccc1Nc1ncc2ccc(-c3ccccc3S(C)(=O)=O)n2n1", "reported_value": "1000 to 10000 nM"}
{"molecule": "CN1CCOc2ccc(Nc3ncc4ccc(-c5cccc(NS(C)(=O)=O)c5)n4n3)cc21", "reported_value": "< 100 nM"}
{"molecule": "COc1ccc(-c2ccc3cnc(Nc4ccc5c(c4)N(C(C)=O)CCCC5)nn23)cn1", "reported_value": "< 100 nM"}

Now for another entry.
Under JAK2 (Homo sapiens): IC50 value of COc1cc(CN2C[C@@H](O)[C@H](O)C2)ccc1Nc1ncc2ccc(-c3ccccc3OC)n2n1 ?
100 to 1000 nM

---

- target_or_system: JAK2 (Homo sapiens)
- Construct: host or cells: baculovirus expression system
- protocol_notes: Recombinant Human JAK2 Kinase Assay (TRF)
- Type: biochemical
- condition_set: JAK2 kinase inhibition, 0.2 μM ATP; read-out: JAK2 Potency
quantity_kind: IC50

Known IC50 results, listed for orientation:
{"compound": "CS(=O)(=O)N1CC=C(c2ccc3cnc(Nc4ccc(N5CCOCC5)cc4)nn23)CC1 [Example 1129]", "IC50": "< 100 nM"}
{"compound": "COc1cc(N2CCC(N3CCOCC3)CC2)c(C)cc1Nc1ncc2ccc(-c3ccccc3OC)n2n1 [Example 539]", "IC50": "< 100 nM"}
{"compound": "CS(=O)(=O)c1cccc(-c2ccc3cnc(N4CCC(Oc5cccc(N)c5)CC4)nn23)c1 [Example 563]", "IC50": "1000 to 10000 nM"}

Suppose we examine the compound COc1ccccc1-c1ccc2cnc(Nc3ccc(C4CCN(C(=O)N5CCN(C)CC5)CC4)cc3)nn12 [Example 501] ; what IC50 value has been reported?
< 100 nM

---

- target_or_system: ALK (Homo sapiens)
- Construct: host or cells: baculovirus expression system
- Sequence (Q9UM73 19-1620): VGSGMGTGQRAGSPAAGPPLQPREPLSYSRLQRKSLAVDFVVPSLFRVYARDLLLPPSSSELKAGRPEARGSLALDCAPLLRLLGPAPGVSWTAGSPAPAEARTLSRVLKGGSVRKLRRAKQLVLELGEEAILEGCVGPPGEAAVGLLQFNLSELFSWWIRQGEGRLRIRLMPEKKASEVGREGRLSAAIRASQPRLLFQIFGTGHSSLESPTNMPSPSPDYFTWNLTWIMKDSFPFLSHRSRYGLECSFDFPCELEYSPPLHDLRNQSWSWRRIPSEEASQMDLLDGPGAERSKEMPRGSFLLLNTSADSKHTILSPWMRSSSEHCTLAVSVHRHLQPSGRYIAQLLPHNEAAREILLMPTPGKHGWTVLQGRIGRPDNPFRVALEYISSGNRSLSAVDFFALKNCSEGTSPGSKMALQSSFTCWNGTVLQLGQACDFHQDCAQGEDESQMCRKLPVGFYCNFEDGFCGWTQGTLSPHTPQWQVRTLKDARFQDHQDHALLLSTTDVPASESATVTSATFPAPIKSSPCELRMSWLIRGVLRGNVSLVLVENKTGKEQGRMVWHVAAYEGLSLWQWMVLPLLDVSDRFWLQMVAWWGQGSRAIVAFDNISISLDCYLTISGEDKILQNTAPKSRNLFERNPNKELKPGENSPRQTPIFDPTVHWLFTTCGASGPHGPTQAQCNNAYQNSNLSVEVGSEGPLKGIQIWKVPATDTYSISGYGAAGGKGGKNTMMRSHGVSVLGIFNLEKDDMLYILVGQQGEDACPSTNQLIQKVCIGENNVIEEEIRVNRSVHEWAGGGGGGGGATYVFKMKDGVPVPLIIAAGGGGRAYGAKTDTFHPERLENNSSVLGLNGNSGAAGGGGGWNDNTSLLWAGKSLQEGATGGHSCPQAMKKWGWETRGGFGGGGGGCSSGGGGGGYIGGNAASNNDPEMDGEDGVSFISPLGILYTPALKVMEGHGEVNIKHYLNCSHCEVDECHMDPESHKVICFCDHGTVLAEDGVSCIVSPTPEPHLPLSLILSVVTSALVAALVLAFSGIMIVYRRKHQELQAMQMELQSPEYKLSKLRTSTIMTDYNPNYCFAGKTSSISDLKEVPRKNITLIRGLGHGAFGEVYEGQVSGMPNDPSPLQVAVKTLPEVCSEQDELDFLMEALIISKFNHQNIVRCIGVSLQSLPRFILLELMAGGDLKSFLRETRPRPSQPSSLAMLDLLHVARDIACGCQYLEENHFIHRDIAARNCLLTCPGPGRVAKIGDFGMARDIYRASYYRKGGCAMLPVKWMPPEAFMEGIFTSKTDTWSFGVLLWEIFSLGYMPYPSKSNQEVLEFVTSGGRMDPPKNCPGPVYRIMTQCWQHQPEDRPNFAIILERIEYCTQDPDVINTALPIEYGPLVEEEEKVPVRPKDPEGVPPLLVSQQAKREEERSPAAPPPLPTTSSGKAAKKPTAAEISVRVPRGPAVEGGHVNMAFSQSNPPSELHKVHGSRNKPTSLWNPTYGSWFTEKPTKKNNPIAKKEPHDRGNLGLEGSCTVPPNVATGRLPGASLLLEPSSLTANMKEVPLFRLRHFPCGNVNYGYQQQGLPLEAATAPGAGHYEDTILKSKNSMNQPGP
- protocol_notes: ALK Kinase Assay (ELISA/TRF, PLC-γ substrate)
- Assay type: biochemical
- condition_set: ALK Kinase Inhibition; read-out: ALK Potency
pIC50: −log10 of the molar value.
The molecules listed here are annotated with their pIC50.

Known pIC50 results, listed for orientation:
{"structure": "CCCS(=O)(=O)Nc1cccc(-c2ccc3cnc(Nc4ccc(N5CCOCC5)cc4)nn23)c1", "target_or_system": "ALK (Homo sapiens)", "reported_value": "6.00 to 7.00"}
{"structure": "COc1ccc(Cl)cc1-c1ccc2cnc(Nc3cccc(N4CCN(CCO)CC4)c3)nn12", "target_or_system": "ALK (Homo sapiens)", "reported_value": "> 7.00"}
{"structure": "CS(=O)(=O)c1ccc(-c2ccc3cnc(Nc4ccc(N5CCOCC5)c(F)c4)nn23)cc1", "target_or_system": "ALK (Homo sapiens)", "reported_value": "< 5.00"}

Now for another entry.
Suppose we examine the molecule CC(C)(C)NS(=O)(=O)c1cccc(-c2ccc3cnc(Nc4ccc5nc(CN6CCOCC6)[nH]c5c4)nn23)c1 ; what pIC50 value has been reported?
6.00 to 7.00

---

- target_or_system: JAK2 (Homo sapiens)
- Construct: host or cells: baculovirus expression system
- protocol_notes: Recombinant Human JAK2 Kinase Assay (TRF)
- Assay type: biochemical
- condition_set: JAK2 kinase inhibition, 0.2 μM ATP; read-out: JAK2 Potency
pIC50: −log10 of the molar value.
quantity_kind: pIC50

Known pIC50 results, listed for orientation:
{"structure": "COc1cc(-c2cccnc2)ccc1Nc1ncc2ccc(-c3ccccc3OC)n2n1", "pIC50": "< 5.00"}
{"structure": "COc1ccccc1-c1ccc2cnc(Nc3ccc4c(c3)N(C(C)=O)CCCC4)nn12", "pIC50": "> 7.00"}
{"structure": "CS(=O)(=O)Nc1cccc(-c2ccc3cnc(Nc4ccc(N5CCC(N6CCOCC6)CC5)cc4)nn23)c1", "pIC50": "> 7.00"}

Now for another entry.
Suppose we examine the compound COc1ccc(-c2ccc3cnc(Nc4ccc5c(c4)CCN(CC(N)=O)C5)nn23)cn1 ; what pIC50 value has been reported?
> 7.00
